The reported measurements were obtained from ChEMBL document CHEMBL1150387.

- assayed-target: Inhibitor of nuclear factor kappa-B kinase subunit beta (Homo sapiens)
- Sequence (whole entry): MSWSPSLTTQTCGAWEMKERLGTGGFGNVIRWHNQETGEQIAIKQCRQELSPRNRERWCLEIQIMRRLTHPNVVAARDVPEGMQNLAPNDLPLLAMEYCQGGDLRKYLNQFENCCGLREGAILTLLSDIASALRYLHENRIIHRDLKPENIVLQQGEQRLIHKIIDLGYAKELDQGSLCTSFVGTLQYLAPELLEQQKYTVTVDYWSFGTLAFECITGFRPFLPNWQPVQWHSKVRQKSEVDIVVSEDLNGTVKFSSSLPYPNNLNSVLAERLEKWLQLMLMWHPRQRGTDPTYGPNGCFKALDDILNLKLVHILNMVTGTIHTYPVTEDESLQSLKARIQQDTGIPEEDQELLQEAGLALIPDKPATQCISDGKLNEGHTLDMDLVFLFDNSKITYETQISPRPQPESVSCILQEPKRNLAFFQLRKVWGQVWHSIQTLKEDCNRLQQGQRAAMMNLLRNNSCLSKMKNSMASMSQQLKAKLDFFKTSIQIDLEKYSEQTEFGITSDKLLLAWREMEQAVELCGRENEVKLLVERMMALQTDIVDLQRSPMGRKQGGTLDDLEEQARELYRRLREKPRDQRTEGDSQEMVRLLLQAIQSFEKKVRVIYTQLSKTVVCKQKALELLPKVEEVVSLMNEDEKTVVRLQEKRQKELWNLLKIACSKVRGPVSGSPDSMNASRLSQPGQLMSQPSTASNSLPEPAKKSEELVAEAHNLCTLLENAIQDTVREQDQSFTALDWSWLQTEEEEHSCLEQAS
- run-description: Inhibition of IKK-beta at 10 uM by HTRF assay relative to control
Label t for high-side inhibition (at or above 7%) and f for low-side inhibition (below it).

Kindly determine if inhibition recorded for Cc1cccc(Oc2ccnc(N3CCN(CC(=O)Nc4cccc5c4CCCC5)CC3)n2)c1 is above or exactly 7%.
f

Kindly determine if inhibition recorded for Cc1cccc(Nc2ncnc3c2CN(C(=O)c2ccc(N(C)C)c4ccccc24)CC3)c1 is above or exactly 7%.
f

Kindly determine if inhibition recorded for O=C(NCc1cccnc1)c1cccc(-c2ccc(Nc3ccc4ncsc4c3)nn2)c1 is above or exactly 7%.
t

Kindly determine if inhibition recorded for O=C(NCCc1ccc(O)cc1)c1cccc(Nc2nccc(Nc3ccc4ncsc4c3)n2)c1 is above or exactly 7%.
t

---

- run-description: Inhibition of PKA at 10 uM by HTRF assay relative to control
Measured inhibition, listed per entry for reference.
Write it as a number; the unit % goes unstated.

Note down inhibition recorded for O=C(NCc1cccnc1)c1cccc(-c2ccc(Nc3ccc4ncsc4c3)nn2)c1
16

Continuing:
Note down inhibition recorded for Clc1ccc2sc(CN3CCN(c4ncnc5c4CN(Cc4ccccc4)CC5)CC3)cc2c1
0

Note down inhibition recorded for CC(=O)N1CCN(C(=O)c2cccc(Nc3cc(N(C)c4cccc(C)c4)ncn3)c2)CC1
0

Note down inhibition recorded for Cc1cccc(N(C)c2cc(Nc3cccc(C(=O)NCc4ccncc4)c3)ncn2)c1
0

---

- assayed-target: Protein-tyrosine kinase 6 (Homo sapiens) (UniProt Q13882)
- Sequence (Q13882 whole entry, looked up): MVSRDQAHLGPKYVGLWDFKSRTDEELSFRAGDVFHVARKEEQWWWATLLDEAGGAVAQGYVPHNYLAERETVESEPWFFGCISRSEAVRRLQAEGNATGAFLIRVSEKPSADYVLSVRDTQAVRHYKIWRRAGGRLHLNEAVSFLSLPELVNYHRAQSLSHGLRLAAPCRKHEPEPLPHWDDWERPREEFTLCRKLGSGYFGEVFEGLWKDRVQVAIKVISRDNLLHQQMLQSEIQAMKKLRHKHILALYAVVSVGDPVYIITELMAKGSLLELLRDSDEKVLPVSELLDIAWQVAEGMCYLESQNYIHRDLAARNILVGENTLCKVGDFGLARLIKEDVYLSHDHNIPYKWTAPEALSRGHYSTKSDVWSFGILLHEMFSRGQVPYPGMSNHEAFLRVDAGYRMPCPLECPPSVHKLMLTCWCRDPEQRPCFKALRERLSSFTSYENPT
- run-description: Inhibition of Brk at 10 uM by HTRF assay relative to control
Measured inhibition, listed per entry for reference.
Write it as a number; the unit % goes unstated.

Note down inhibition recorded for Cc1cccc(N(C)c2cc(Nc3ccc(CC(=O)Nc4ccc5ncsc5c4)cc3)ncn2)c1
29

Continuing:
Note down inhibition recorded for COc1ccc(NC(=O)Cc2ccc(Nc3cc(N(C)c4cccc(C)c4)ncn3)cc2)cn1
4

Note down inhibition recorded for O=C(NCCc1ccc(O)cc1)c1cccc(Nc2nccc(Nc3ccc4ncsc4c3)n2)c1
18

Note down inhibition recorded for O=C(c1nc(SCc2ccc(Cl)cc2)n2ccccc12)N1CCN(c2cc(Nc3cccc(Br)c3)ncn2)CC1
24

Note down inhibition recorded for Cc1cccc(Nc2ncnc3c2CN(C(=O)c2ccc(N(C)C)c4ccccc24)CC3)c1
10

Note down inhibition recorded for O=C(NC[C@@H]1CCCO1)c1cccc(Nc2nccc(Nc3ccc4ncsc4c3)n2)c1
81

Note down inhibition recorded for Cc1cccc(N(C)c2cc(Nc3cccc(C(=O)N(C)CCc4ccccn4)c3)ncn2)c1
11

---

Measured inhibition, listed per entry for reference.
- run-description: Inhibition of AMPKalpha at 10 uM by HTRF assay relative to control
The answer consists of two parts: a number and, after it, its unit.

Examples with answers:
Note down inhibition recorded for Cc1cccc(Oc2ccnc(N3CCN(CC(=O)Nc4cccc5c4CCCC5)CC3)n2)c1
0%

Note down inhibition recorded for CN(CCc1ccccn1)C(=O)[C@@H]1CCCN1c1nccc(Nc2ccccc2)n1
0%

Note down inhibition recorded for Cc1cccc(N(C)c2cc(Nc3cccc(C(=O)N(CC(C)C)CC(C)C)c3)ncn2)c1
0%

Note down inhibition recorded for CN(C)c1ccc(C(=O)N2CCN(c3ncnc4c3CN(Cc3ccccc3)CC4)CC2)c2ccccc12
0%

Note down inhibition recorded for CN(C)CC(C)(C)CNC(=O)c1cccc(Nc2nccc(Nc3ccc4ncsc4c3)n2)c1
72%

Continuing:
Note down inhibition recorded for Cc1cccc(N(C)c2cc(Nc3cccc(C(=O)NCc4ccc(N(C)C)cc4)c3)ncn2)c1
0%

Note down inhibition recorded for COc1cccc(Nc2cc(Nc3cccc(C(=O)N(C)CCc4ccccn4)c3)nc(N)n2)c1
13%

---

- assayed-target: UniProtKB P51812
- Sequence (P51812 whole entry): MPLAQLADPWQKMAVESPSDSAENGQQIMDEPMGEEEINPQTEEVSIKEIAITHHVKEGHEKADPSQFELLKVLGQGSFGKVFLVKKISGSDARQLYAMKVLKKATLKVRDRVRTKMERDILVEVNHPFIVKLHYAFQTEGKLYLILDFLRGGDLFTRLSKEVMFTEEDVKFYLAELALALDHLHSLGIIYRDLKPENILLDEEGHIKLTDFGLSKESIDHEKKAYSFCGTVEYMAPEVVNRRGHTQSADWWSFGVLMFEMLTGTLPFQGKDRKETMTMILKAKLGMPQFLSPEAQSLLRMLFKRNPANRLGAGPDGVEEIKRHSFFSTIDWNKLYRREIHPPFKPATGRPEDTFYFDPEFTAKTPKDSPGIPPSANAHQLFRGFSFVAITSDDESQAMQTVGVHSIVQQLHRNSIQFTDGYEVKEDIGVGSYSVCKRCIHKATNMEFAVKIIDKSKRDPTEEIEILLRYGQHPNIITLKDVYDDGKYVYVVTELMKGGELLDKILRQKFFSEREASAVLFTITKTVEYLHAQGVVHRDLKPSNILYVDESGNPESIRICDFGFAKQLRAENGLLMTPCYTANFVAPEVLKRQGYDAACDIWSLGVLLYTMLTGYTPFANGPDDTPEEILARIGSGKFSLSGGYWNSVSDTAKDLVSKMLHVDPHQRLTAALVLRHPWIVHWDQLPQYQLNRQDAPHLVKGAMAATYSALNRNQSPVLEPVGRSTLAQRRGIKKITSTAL
- run-description: Inhibition of RSK2 at 10 uM by HTRF assay relative to control
measurement-kind: inhibition (%)
Write it as a number; the unit % goes unstated.

Examples with answers:
Note down inhibition recorded for Nc1nc(Nc2ccccc2)cc(N2CCC(C(=O)NCCc3ccccn3)CC2)n1
0

Note down inhibition recorded for Cc1cccc(N(C)c2cc(Nc3cccc(C(=O)N(C)CCc4ccccn4)c3)ncn2)c1
0

Note down inhibition recorded for COC[C@@H]1CCCN1C(=O)[C@@H]1CCCN1c1nccc(Nc2ccccc2)n1
0

Note down inhibition recorded for CN(C)CC(C)(C)CNC(=O)c1cccc(Nc2nccc(Nc3ccc4ncsc4c3)n2)c1
17

Note down inhibition recorded for Nc1nc(Nc2ccc3ncsc3c2)cc(N2CCC[C@H]2C(=O)NCCc2cccc(I)c2)n1
0

Continuing:
Note down inhibition recorded for COc1cccc(Nc2cc(Nc3cccc(C(=O)N(C)CCc4ccccn4)c3)nc(N)n2)c1
0

Note down inhibition recorded for O=C(NC[C@@H]1CCCO1)c1cccc(Nc2nccc(Nc3ccc4ncsc4c3)n2)c1
9

Note down inhibition recorded for CN(CCCn1ccnc1)C(=O)[C@@H]1CCCN1c1nccc(Nc2ccccc2)n1
0

---

Measured inhibition, listed per entry for reference.
- assayed-target: Protein kinase C alpha type (Homo sapiens)
- run-description: Inhibition of PKCalpha at 10 uM by HTRF assay relative to control
The answer consists of two parts: a number and, after it, its unit.

Note down inhibition recorded for O=C(c1nc(SCc2ccc(Cl)cc2)n2ccccc12)N1CCN(c2cc(Nc3cccc(Br)c3)ncn2)CC1
0%

Note down inhibition recorded for Nc1nc(N2CCOCC2)cc(N2CCC(C(=O)NCc3cccs3)CC2)n1
0%

Continuing:
Note down inhibition recorded for Nc1nc(Nc2ccc3ncsc3c2)cc(N2CCC[C@H]2C(=O)N[C@@H](CO)c2ccccc2)n1
0%

---

- assayed-target: Mitogen-activated protein kinase 14 (Homo sapiens) (UniProt Q16539)
- Sequence (Q16539 whole entry): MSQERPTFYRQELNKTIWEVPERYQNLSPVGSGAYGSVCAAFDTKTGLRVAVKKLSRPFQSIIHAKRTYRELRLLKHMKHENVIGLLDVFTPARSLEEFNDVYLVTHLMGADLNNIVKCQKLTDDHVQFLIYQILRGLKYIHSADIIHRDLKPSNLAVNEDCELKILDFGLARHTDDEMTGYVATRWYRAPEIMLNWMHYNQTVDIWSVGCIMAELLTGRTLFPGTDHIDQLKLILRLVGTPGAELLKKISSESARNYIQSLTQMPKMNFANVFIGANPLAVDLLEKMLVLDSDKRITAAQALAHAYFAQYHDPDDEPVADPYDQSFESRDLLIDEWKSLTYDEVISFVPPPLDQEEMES
- run-description: Inhibition of p38alpha at 10 uM by HTRF assay relative to control
Measured inhibition, listed per entry for reference.
Write it as a number; the unit % goes unstated.

Note down inhibition recorded for COc1cccc(Nc2cc(Nc3cccc(C(=O)NCCCn4ccnc4)c3)nc(N)n2)c1
11

Note down inhibition recorded for CN(C)c1ccc(C(=O)N2CCN(c3ncnc4c3CN(Cc3ccccc3)CC4)CC2)c2ccccc12
4

Note down inhibition recorded for CN(C)CC(C)(C)CNC(=O)C1CCN(c2cc(N3CCOCC3)nc(N)n2)CC1
0

Note down inhibition recorded for Cc1cccc(N(C)c2cc(Nc3cccc(C(=O)NCc4ccc(N(C)C)cc4)c3)ncn2)c1
0

---

- assayed-target: Mitogen-activated protein kinase 9 (Homo sapiens) (UniProt P45984)
- Sequence (P45984 whole entry, looked up): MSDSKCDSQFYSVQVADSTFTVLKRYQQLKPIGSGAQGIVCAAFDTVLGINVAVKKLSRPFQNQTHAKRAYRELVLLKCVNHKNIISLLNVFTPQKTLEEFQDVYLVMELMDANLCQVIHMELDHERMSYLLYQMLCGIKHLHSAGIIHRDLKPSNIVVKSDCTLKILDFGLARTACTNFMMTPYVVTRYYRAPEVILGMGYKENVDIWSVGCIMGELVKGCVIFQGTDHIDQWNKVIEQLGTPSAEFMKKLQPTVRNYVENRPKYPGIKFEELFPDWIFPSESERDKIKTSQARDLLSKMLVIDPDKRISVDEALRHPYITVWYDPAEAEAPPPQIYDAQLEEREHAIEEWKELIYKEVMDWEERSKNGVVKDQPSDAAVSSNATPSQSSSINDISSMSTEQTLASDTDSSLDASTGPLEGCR
- run-description: Inhibition of JNK2 at 10 uM by HTRF assay relative to control
Label 1 (yes) for high-side inhibition (at or above 7%) and 0 (no) for low-side inhibition (below it).

Example entries begin here.
Kindly determine if inhibition recorded for Cc1cccc(CN2CCN(c3cc(N(C)c4cccc(C)c4)ncn3)CC2)c1 is above or exactly 7%.
0 (no)

Kindly determine if inhibition recorded for CN(CCc1ccccn1)C(=O)c1cccc(Nc2nccc(Nc3ccc4ncsc4c3)n2)c1 is above or exactly 7%.
1 (yes)

Kindly determine if inhibition recorded for Nc1nc(Nc2ccc(C(=O)NCCc3ccncc3)cc2)cc(N2CCOCC2)n1 is above or exactly 7%.
0 (no)

Continuing:
Kindly determine if inhibition recorded for O=C(COc1ccccc1)N1CCN(c2nccc(Nc3ccc4ncsc4c3)n2)CC1 is above or exactly 7%.
1 (yes)

Kindly determine if inhibition recorded for Nc1nc(Nc2ccccc2)cc(N2CCC(C(=O)NCCc3ccccn3)CC2)n1 is above or exactly 7%.
0 (no)
